test system: HT29 colon; test: NCI tumour cell line growth inhibition, 48 h
observable: TGI

Observed TGI on HT29 colon for `CN1C(=O)CNC(=O)[C@H](NC(=O)c2nc3ccccc3cc2O)CSSC[C@H]1C(=O)NCCc1nc2ccccc2cc1O` , please.
16.4 µM

Fill in the recorded TGI for this compound, with HT29 colon as test system: CC(=O)N1CC2Nc3ccccc3C2CC1CO (centres undefined)
> 100 µM

So what TGI did `O=S1(=O)CCN(Cc2ccccn2)CC1` get with HT29 colon?
> 100 µM

Value wanted: TGI (HT29 colon) of entry `O=C(O)CSCC(=O)Nc1ccc2cccc3c2c1CC3`
> 100 µM

What TGI appears in the records for this compound with HT29 colon? `COc1cccc2cc(C(N)=O)c(=N)oc12`
> 100 µM

Provide value of TGI for this record tested with HT29 colon: `COC(=O)C1=Nc2c(C)nn(-c3ccccc3)c2N=C(c2ccc(C)cc2)C1`
> 10 µM

Quick check: TGI on HT29 colon, item `COc1cc(/C=C/C(C)=O)ccc1OP(=O)(O)O` ?
> 100 µM

Value wanted: TGI (HT29 colon) of entry `CC1(C)N=C(N)N=C(N)N1c1ccc(F)c(C(F)(F)F)c1`
> 100 µM

Please state recorded TGI (tested on HT29 colon) of `O=C1CCCC/C1=C/C=C/c1ccccc1`
> 100 µM

Please provide the recorded TGI for Cc1c(-c2cc3n(n2)C(c2cccs2)C(C#N)=C(c2ccccc2)N3)c(=O)n(-c2ccccc2)n1C (centres undefined) , tested on HT29 colon.
> 100 µM

Form: Entry = `[Cu+2].[O-]c1ccc2ccccc2c1N=Nc1ccccc1.[O-]c1ccc2ccccc2c1N=Nc1ccccc1` | System = HT29 colon | TGI = ____
> 100 µM

I'm curious: which TGI was measured for CC(ONC(=O)c1cc(C(F)(F)F)cc(C(F)(F)F)c1)C(=O)Nc1ccc(Cl)cc1 (centres undefined) tested on HT29 colon?
27.2 µM

For HT29 colon, provide TGI of Cc1ccc(C(=O)C(C)N)cc1 (centres undefined) please.
> 100 µM

Form entry - test system: HT29 colon; read-out: TGI; compound: `C/C(=N\Nc1ccc([N+](=O)[O-])cc1[N+](=O)[O-])c1ccc2ccccc2n1`
> 100 µM

Look up TGI with HT29 colon for this compound: `CCOP(=O)(Nc1ccc(-c2ccccc2)cc1)OCC`
> 100 µM

Request body: readout TGI, system HT29 colon, query O=P(O)(O)C(O)/C=C/c1ccccc1 (centres undefined) . Return the value.
> 100 µM

So what TGI did `N#CCC(=O)Nn1c(CC#N)nnc1Cc1ccccc1` get with HT29 colon?
> 100 µM

Recorded TGI for `COc1cc(CSc2nc3ccc(C)cc3c(=O)n2Cc2ccccc2)cc(OC)c1OC` with HT29 colon, please?
80.8 µM

What reported TGI corresponds to `O=C(Nc1cc(C(F)(F)F)ccc1F)Nc1n[nH]c2ccccc12` on HT29 colon?
> 100 µM

For HT29 colon, provide TGI of `O=C1CCCc2c1c1c(n2Cc2ccccc2)-c2ccccc2C1=O` please.
> 100 µM

Form: Entry = `CCOP(=O)(/C=C\n1cnc2c(=O)n(C(C)=O)c(N)nc21)OCC` | System = HT29 colon | TGI = ____
> 100 µM

Find TGI (HT29 colon) for the entry COc1ccc(C(c2ccc(C(C)C)cc(=O)c2O)c2c(O)cc3oc(-c4ccccc4)cc(=O)c3c2O)cc1 (centres undefined)
62.9 µM

Give recorded TGI with HT29 colon for the following compound: `N=C(c1ccccc1)N(O)C1CCCCC1`
> 100 µM

For the record `CN1CCN(c2ccc3nc(-c4cc(C(C)(C)C)c(O)c(C(C)(C)C)c4)[nH]c3c2)CC1` , what value of TGI is listed for HT29 colon?
4.41 µM

// lookup TGI | system=HT29 colon | key= `CS(=O)(=O)CCNCc1ccc(-c2ccc3ncnc(Nc4ccc(OCc5cccc(C(F)(F)F)c5)cc4)c3c2)o1`
8.32 µM

HT29 colon / TGI / `CC(=O)c1ccc(Oc2ccc(/C(C)=N\N=C(N)N)cc2)cc1` : value?
3.52 µM

Value wanted: TGI (HT29 colon) of entry `O=C1c2ccccc2-c2nc(-c3cccnc3)cc3c2c1nc1ccccc13`
> 100 µM

I'm curious: which TGI was measured for `CCC[C@H](N[C@@H]1CCc2cc(F)cc(F)c2C1)C(=O)Nc1cn(C(C)(C)CNCC(C)(C)C)cn1` tested on HT29 colon?
30 µM

Recall the recorded TGI for c1ccc(C2SCC3=Nc4ccccc4CN32)cc1 (centres undefined) with HT29 colon and state it.
50.7 µM

So what TGI did `O=C(NO)c1coc2ccccc2c1=O` get with HT29 colon?
> 100 µM

Form field - read-out: TGI; system: HT29 colon; submitted item: `COc1ccc2c(c1)CC[C@@H]1[C@@H]2CC[C@@]2(C)[C@H]1CC1(CCCCC1)[C@@H]2O`
4.39 µM

Can you look up TGI on HT29 colon for NC(=O)CCC(NCc1c2ccccc2[n+]([O-])c2ccccc12)C(=O)O (centres undefined) ?
> 100 µM

Under HT29 colon: TGI value of `COc1cccc(/C=N\Nc2ccc([N+](=O)[O-])cn2)c1O` ?
> 100 µM

Param readout = TGI; param system = HT29 colon; param query = COc1cc(N=NN(C)C)c(C(C)c2c3cc(OC)c(OC)cc3cc[n+]2C)cc1OC (centres undefined) ; response: value
> 100 µM

Item: `CC(=O)/C=C/C1=C(c2cc3ccccc3s2)c2ccccc2CC1` Test system: HT29 colon Read-out: TGI Value: ?
> 100 µM

Request body: readout TGI, system HT29 colon, query `N#Cc1ccccc1C#C/C=C\C#Cc1ccc(OCCCNC(=O)c2cc3ccccc3[nH]2)cc1` . Return the value.
> 100 µM

Could you share what TGI was measured for `O=C(CCC(=O)Nc1ccc(Cl)cc1)CC(=O)c1ccc(F)cc1` , tested on HT29 colon?
> 100 µM

Under HT29 colon: TGI value of `CC(=O)Oc1ccc2c(c1)c1c(=O)oc(N(C)C)nc1n2Cc1ccccc1` ?
> 100 µM

// fetch HT29 colon TGI for `NNC(=O)c1c(Cl)c(Cl)c(Cl)c(Cl)c1-c1nc2ccccc2[nH]1`
61.8 µM

# query: TGI | item `COc1ccc2c(c1)c(C1(c3cn(C)c4ccc(OC)cc34)C(=O)Nc3ccc(F)cc31)cn2C` | system: HT29 colon
23 µM

Notebook entry, HT29 colon assay: TGI of `O=c1cc(Cl)nc[nH]1` = ?
> 100 µM

// map `CN(C)CCNc1ccc([N+](=O)[O-])c2nc3ccccc3c(N)c12` to recorded TGI (system: HT29 colon)
3.07 µM

For the record `CCOC(=O)/N=C(\N)SCc1ccccc1` , what value of TGI is listed for HT29 colon?
> 100 µM

State its TGI on HT29 colon: O=C1Nc2ccccc2C1Cc1ccccc1 (centres undefined)
> 100 µM
